Exercise: state measured MIC80 for each of the compounds provided.
Tested on: Candida tropicalis
experimentalDetails: Antifungal activity against Candida tropicalis
Assay type: functional
Express it in µg/mL; write the number only.

**Q:** Reported MIC80 for Cc1ccc(C(=O)Cn2ncn(-c3ccc(CN(C)CC(O)(Cn4cncn4)c4ccc(F)cc4F)cc3)c2=O)cc1 (centres undefined) : what is it?
**A:** 0.0312

**Q:** Reported MIC80 for CN(Cc1ccc(-n2cnn(Cc3ccc(I)cc3)c2=O)cc1)CC(O)(Cn1cncn1)c1ccc(F)cc1F (centres undefined) : what is it?
**A:** 1

**Q:** Reported MIC80 for CN(Cc1ccc(C(F)(F)F)cc1)CC(O)(Cn1cncn1)c1ccc(F)cc1F (centres undefined) : what is it?
**A:** 1

**Q:** Reported MIC80 for Cc1cccc(C(=O)Nc2ccc(CN(C)CC(O)(Cn3cncn3)c3ccc(F)cc3F)cc2)c1 (centres undefined) : what is it?
**A:** 1

**Q:** Reported MIC80 for CN(Cc1ccc(NC(=O)c2ccccc2Cl)cc1)CC(O)(Cn1cncn1)c1ccc(F)cc1F (centres undefined) : what is it?
**A:** 0.5

**Q:** Reported MIC80 for CN(Cc1ccc(-n2cnn(CC(=O)c3ccc(F)cc3F)c2=O)cc1)CC(O)(Cn1cncn1)c1ccc(F)cc1F (centres undefined) : what is it?
**A:** 0.0625

**Q:** Reported MIC80 for CN(Cc1ccc(-n2cnn(CC(=O)c3ccc(C(C)(C)C)cc3)c2=O)cc1)CC(O)(Cn1cncn1)c1ccc(F)cc1F (centres undefined) : what is it?
**A:** 0.5

**Q:** Reported MIC80 for CN(Cc1ccc(NC(=O)c2ccc(I)cc2)cc1)CC(O)(Cn1cncn1)c1ccc(F)cc1F (centres undefined) : what is it?
**A:** 0.25

**Q:** Reported MIC80 for CN(Cc1ccc(NC(=O)c2ccc(Br)cc2)cc1)CC(O)(Cn1cncn1)c1ccc(F)cc1F (centres undefined) : what is it?
**A:** 0.016

Reference source for all entries: ChEMBL document CHEMBL1146065
